target: human RIP1 kinase domain (2-375) (Homo sapiens (Human)); assay: biochemical; assay type: biochemical; details: human RIP1 kinase domain (2-375), 50 uM ATP, 2 hours incubation, Transcreener ADP assay; read-out: RIP1 Ki
Sequence (Q13546 2-375): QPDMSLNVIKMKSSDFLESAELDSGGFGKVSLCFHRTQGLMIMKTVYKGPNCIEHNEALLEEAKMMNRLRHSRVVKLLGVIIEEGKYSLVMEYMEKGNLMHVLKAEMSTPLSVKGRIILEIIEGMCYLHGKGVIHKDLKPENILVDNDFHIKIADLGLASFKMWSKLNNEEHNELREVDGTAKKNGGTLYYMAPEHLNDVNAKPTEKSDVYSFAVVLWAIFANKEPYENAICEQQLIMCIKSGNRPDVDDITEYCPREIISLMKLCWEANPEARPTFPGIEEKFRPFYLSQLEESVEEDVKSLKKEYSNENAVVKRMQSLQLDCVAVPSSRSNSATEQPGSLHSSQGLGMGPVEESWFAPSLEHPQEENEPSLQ
Could you please report measured Ki for the items listed next?
One number for each entry, in nM.

Previously resolved entries follow.
CC1CCn2cnc(C(=O)N[C@H]3COc4ccccc4N(C)C3=O)c2C1 (stereo partly shown) | 262
Cc1ncn2c1N(C)C(=O)C(NC(=O)c1ncn(Cc3ccccc3)n1)CC2 (stereo not shown) | 106
CN1C(=O)[C@@H](NC(=O)c2cc3c(cn2)cnn3C2CCOC2)COc2ccccc21 (stereo partly shown) | 61.4

# input for lookup
Please look up its Ki: CN1C(=O)C(NC(=O)c2ncn(Cc3ccccc3)n2)CCn2nc3c(c21)CSC3 (stereo not shown)
65.8
